// shrunken log2 fold change lookup, one value per entry
# Tested on: Escherichia coli TOP10
# assay-overview: shrunken log2 fold change of peptide-encoding DNA abundance (4.5 h post-induction vs induction); higher = less antimicrobial activity (less host growth inhibition)
# stated-conditions: time post-induction: 4.5 h; library: site-saturation at positions 5, 18, 19, 20
Output spec: single numeric token, no unit.

Solved entries (count: 2):
polymer-sequence	shrunken log2 fold change
RRIRKRPPRLPRPRPRPYCLPRP	-0.17
RRIRHRPPRLPRPRPRPHVMPRP	-0.185

Fill blank: measured shrunken log2 fold change of the sequence `RRIRERPPRLPRPRPRPQEKPRP` is ____. -0.015

Fill blank: measured shrunken log2 fold change of the sequence `RRIRQRPPRLPRPRPRPASHPRP` is ____. 0.189

* * *

# Test system: Escherichia coli TOP10
# assay-overview: shrunken log2 fold change of peptide-encoding DNA abundance (4.5 h post-induction vs induction); higher = less antimicrobial activity (less host growth inhibition)
# stated-conditions: time post-induction: 4.5 h; library: site-saturation at positions 5, 18, 19, 20
// shrunken log2 fold change lookup, one value per entry
Output spec: single numeric token, no unit.

polymer-sequence	target-system	shrunken log2 fold change
RRIRRRPPRLPRPRPRPRWIPRP	Escherichia coli TOP10	0.356
RRIRTRPPRLPRPRPRPQWIPRP	Escherichia coli TOP10	-0.809
RRIRHRPPRLPRPRPRPHRWPRP	Escherichia coli TOP10	0.0507
RRIRSRPPRLPRPRPRPGWPPRP	Escherichia coli TOP10	0.692
RRIRMRPPRLPRPRPRPKTTPRP	Escherichia coli TOP10	1.09

Fill blank: measured shrunken log2 fold change of the sequence `RRIRWRPPRLPRPRPRPHGSPRP` is ____. 0.173

Fill blank: measured shrunken log2 fold change of the sequence `RRIRKRPPRLPRPRPRPMLYPRP` is ____. -0.26

Fill blank: measured shrunken log2 fold change of the sequence `RRIRDRPPRLPRPRPRPPFRPRP` is ____. 0.126

Fill blank: measured shrunken log2 fold change of the sequence `RRIRTRPPRLPRPRPRPRYRPRP` is ____. -0.0728

* * *

# Test system: Escherichia coli TOP10
# assay-overview: shrunken log2 fold change of peptide-encoding DNA abundance (4.5 h post-induction vs induction); higher = less antimicrobial activity (less host growth inhibition)
# stated-conditions: time post-induction: 4.5 h; library: site-saturation at positions 5, 18, 19, 20
Answer 0 (no) if shrunken log2 fold change is under -0.1, and 1 (yes) if it is -0.1 or more.

Identify whether the reported shrunken log2 fold change of the following sequence is -0.1 or greater: `RRIRSRPPRLPRPRPRPQCQPRP` 0 (no)

* * *

# Test system: Escherichia coli TOP10;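 also: peptides expressed intracellularly from a pBAD plasmid library in pooled LB shake-flask culture, induced with 0.3% L-arabinose, DNA abundance read by NGS, three biological replicates, DESeq2 with apeglm shrinkage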
# assay-overview: shrunken log2 fold change of peptide-encoding DNA abundance (4.5 h post-induction vs induction); higher = less antimicrobial activity (less host growth inhibition)
# stated-conditions: time post-induction: 4.5 h; library: site-saturation at positions 5, 18, 19, 20
// shrunken log2 fold change lookup, one value per entry

Solved entries (count: 4):
polymer-sequence	shrunken log2 fold change
RRIRSRPPRLPRPRPRPMRWPRP	0.664
RRIRSRPPRLPRPRPRPIGNPRP	-0.234
RRIRFRPPRLPRPRPRPCVQPRP	-0.182
RRIRERPPRLPRPRPRPGIYPRP	-0.91

Fill blank: measured shrunken log2 fold change of the sequence `RRIRQRPPRLPRPRPRPMLTPRP` is ____. -0.185
